- Tested on: RAW 264.7 cells
- Assay protocol: MTT assay, cytostatic activity on RAW 264.7 cells
- Format: cell-based, mouse
- Measurement setup: RAW 264.7, at 72 h, n.a. = no cytostatic activity observed at the concentrations tested
Value kind: Cytostatic Activity

Q) Given C#CC=CC(Cl)C1C2CC3OC(OC)(C(Br)CC)C1C3O2 (stereo not drawn) [Compound 2, Maneonene G] , respond with its Cytostatic Activity.
A) > 25 µM

Q) Indicate the recorded Cytostatic Activity value for this molecule: C=C1[C@](C)(O)CC[C@@]1(C)c1ccc(CO)cc1 [Compound 12, laur-2-ene-3,12-diol]
A) > 50 µM

Q) Determine its reported Cytostatic Activity: C#C/C=C\CC(Br)[C@@H]1C[C@@H](OC(C)=O)[C@H](CCCCC)O1 (relative stereo) [Compound 5]
A) > 50 µM
